Ref: the supplement of paper PMC10567573

Reported protein stability index by item:
B1: IFRG15 (parent)
chain: INRADYCPECYPDNPANRSLVLPW

variants of: B1; experiment: protein stability index of a GFP-peptide fusion (GPS, HEK-293T) (PSI 1-6); higher = more stable; settings: c terminus: a fixed tail appended;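 also: lentivirally expressed fusions sorted by FACS into six bins by GFP to DsRed ratio, PSI derived from sequencing read proportions per bin multiplied by bin number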
Write the value as a bare number.

So, N17H ? Its protein stability index was 2.04
